What inhibition was measured for each of the following?
- PROTOCOL_TEXT: TLR3 IRF3 reporter activation blockers – cell-based, poly I:C stimulus, luciferase, 10K MLSCN set, primary screen (AID 602277)
- ASSAY_CONTEXT: HEK293-TLR3 RL24 IRF3 luciferase reporter, at 10 µM, stronger effect = higher value
// units = %; emit number, no label

Could you tell me which inhibition is on file for Cc1cc(NC(=O)Cc2c(F)cccc2Cl)no1 ? 19.6

For the compound CCOC(=O)N1CCC(N2C(=O)c3ccccc3C2Nc2cccnc2)CC1 (configuration not stated) , what inhibition is on record? -4.54

What measured inhibition goes with COc1cccc(OCCSc2nnc3sc4ccccc4n23)c1 ? -31.6

May I ask what inhibition has been recorded for Cc1nc2ccccc2nc1OCC(=O)Nc1cc(C(F)(F)F)ccc1N1CCOCC1 ? 8.99

I am curious: what inhibition value has been reported for CC(=O)N1C(=O)C2(Nc3ccccc3N2)c2ccccc21 ? 9.54

Which inhibition is reported for this compound? O=C(O)COc1ccc(Oc2ccccc2)cc1 9.93

Name the reported inhibition value associated with the compound CCN1CCN(S(=O)(=O)c2ccc(S(=O)(=O)N(CC)Cc3ccccc3)cc2)CC1 16.6

Look up inhibition: CC1CCN(c2oc(-c3cccc4ccccc34)nc2C#N)CC1 -95.3

Which inhibition is listed for CC1Cc2ccccc2N1C(=O)COC(=O)Cn1nnc(-c2ccccc2)n1 (configuration not stated) ? 34.2

What does the record list as inhibition for c1ccc(CCc2nc(-c3cccnc3)no2)cc1 ? -90.7

Entry COc1cccc(C(=O)Nc2c(C(N)=O)oc3ccccc23)c1 has what inhibition? 25.5

Item COc1ccc(CCNC(=O)CC2COc3ccccc3O2)cc1OC (configuration not stated) has what recorded inhibition? 20.3

* * *

- PROTOCOL_TEXT: inhibitors of TNFa-induced NFkB p65 translocation, primary screen, imaging, HUVEC, MLSMR starter and 10KST1 sets (AID 438);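 note: compound added about 3h40 before a 20 min TNFalpha stimulation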
- ASSAY_CONTEXT: HUVEC TNFa-induced p65 nuclear translocation; measured here: nuclei count (cytotoxicity indicator), at 2.08 µM
Field: cell count. Provide a value for each of the molecules that follow.
Number, no unit, nothing else.

Can you share its cell count? I mean this molecule: Cc1ccc(NC(=O)CSc2nnc(-c3ccc(S(=O)(=O)N4CCOCC4)cc3)n2C)cc1 740

Quick one: cell count of Cc1c(NS(=O)(=O)c2ccc3c(c2)n(C)c(=O)n3C)c(=O)n(-c2ccccc2)n1C ? 582

Quick one: cell count for CC(C(=O)Oc1ccc2c(c1)OCO2)N1C(=O)c2ccccc2C1=O (stereo not given) ? 790

Which cell count reading was recorded for the molecule CCCC(=O)Nc1cc(-c2nnc(OC)c3ccccc23)ccc1N1CCOCC1 ? 385

Item under review: Cc1ccc(Cn2nnc3c(=O)[nH]c(C4CCN(S(=O)(=O)c5ccc(F)cc5)CC4)nc32)cc1 . Reported cell count? 436

* * *

- PROTOCOL_TEXT: endothelial E-selectin expression blockers – imaging, HUVEC, immunofluorescence, MLSMR starter and 10KST1 sets, primary screen (AID 487);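 note: signal is fraction of cell area covered by stained E-selectin grains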
- ASSAY_CONTEXT: HUVEC TNFalpha-induced E-selectin immunofluorescence imaging, at 2 µM; stronger effect = higher value
For each of the compounds below, state its inhibition.
Hi! Could you send only the number? It should be in %, unit omitted.

State the recorded inhibition for this entry: Fc1cccc(Nc2ncnc3c2cnn3-c2ccccc2)c1 -51.7

Look at this compound and give its reported inhibition. Cc1ccc(Cl)cc1NC(=O)CSc1nnc(C)n1-c1ccccc1 -16

For the compound Cc1cn(C2CC3OCC3O2)c(=O)[nH]c1=O (stereo unspecified) , what inhibition is on record? 30.5

Query (compound): Cc1ccc2occ(CN3CCN(c4ccccc4)CC3)c(=O)c2c1 ; field requested: inhibition -17

Returns the measured inhibition for the input compound. Input: Cc1nnc(SCC(=O)NCc2ccc3c(c2)OCO3)s1 -57

Given O=C(NC1CCCCCCC1)C1CCN(c2nc3ccccc3o2)CC1 , state its recorded inhibition. -34.9

* * *

- PROTOCOL_TEXT: inhibitors of TNFa-induced NFkB p65 translocation, primary screen, imaging, HUVEC, MLSMR starter and 10KST1 sets (AID 438);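 note: compound added about 3h40 before a 20 min TNFalpha stimulation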
- ASSAY_CONTEXT: HUVEC TNFa-induced p65 nuclear translocation; at 2 µM, 0% TNFa-plus-vehicle, 100% no-TNFa wells
Activity calls are given as the source filed them.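 The calls were made as follows: active = inhibition above 20% together with a positive visual image hit; inconclusive = visual image hit but inhibition not above 20%; inactive = no visual image hit.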
Choose one outcome from this list and give only that: y (active), n (inactive)

Could you kindly confirm the outcome this assay logged for CCOC(=O)c1c(C)oc2ccc(O)c(CN3CCCCC3)c12 ? n

Lab log entry: Cc1ccc(C)n1-c1ccc(-n2cnnn2)cc1 — outcome as called in the assay? n

Recorded test call requested for CCS(=O)(=O)Nc1ccc(C(=O)CC2(O)C(=O)Nc3ccccc32)cc1 (stereo not given) n

Look up the recorded call for Cc1ccccc1-c1nc(CS(=O)(=O)CC(=O)NCc2ccccc2)c(C)o1 in this test. n

Look up the recorded call for Cn1nc(-c2ccc(N3CCCCC3)c(NC(=O)c3ccco3)c2)c2ccccc2c1=O in this test. n

So what was the verdict on Cc1nc2ncnn2c(N2CCC(C(=O)NCC3CCCO3)CC2)c1Cc1ccccc1 (stereo not given) in this test? n

What is the recorded call for this compound in the test? Cc1cc(C)c(S(=O)(=O)N(C)CC(N)=O)c(C)c1 n

Please indicate how the test categorized Cc1c(NC(=O)c2ccc(COc3ccc4ccccc4c3)o2)c(=O)n(-c2ccccc2)n1C . n

Look up the recorded call for CCOC(=O)CCNC(=O)Nc1ccc2nc(C)n(Cc3ccccc3Cl)c(=O)c2c1 in this test. n

I'd appreciate the recorded outcome for COc1ccc(C2(C(=O)Nc3cc(C)on3)CCOCC2)cc1 from this test. n

Recorded call for CCc1c(C(=O)Nc2cc(C)ccc2OC)[nH]c(C)c1C(C)=O ? n

In this assay, the call recorded for Cc1ccc(CN2CCN(C(=O)C3CCC3)CC2)cc1 was what? n

Identify the outcome logged in this assay for the compound shown: CCOC(=O)c1c(NC(=O)CSc2nnc(-c3cccnc3)o2)sc(C)c1C n

Hello, I am checking results. What call was entered for O=S(=O)(c1ccc2c(c1)nc1n2CCC1)N1CCOCC1 ? n

Please state the recorded outcome for this compound: CC1Cc2ccccc2N1C(=O)COC(=O)Cn1nnc(-c2ccccc2)n1 (stereo not given) n

# fetch the recorded call for CCN1CCN(C(=O)c2cn(CCOC)c(=O)c3c2c2ccccc2n3C)CC1 here n

What classification did CCOc1ccccc1N1CCN(C(=O)c2ccncc2)CC1 end up with in this test? n

Recorded test call requested for c1nc(NCC2(N3CCOCC3)CCCCC2)c2ccsc2n1 n

Name the outcome recorded for CC(=O)Nc1nc(-c2ccccc2)nc(C)c1C(C)=O in the assay. n

Which outcome did this test record for the compound Cc1cc2c(cc(C(=O)OCC(=O)NCc3cccs3)n2C(C)C)o1 ? n

Check the results log: what was the call for CCOc1ccc(N(C(C)C(=O)NC2CCCCCC2)S(C)(=O)=O)cc1 (stereo not given) ? n

Recorded test call requested for O=C(Cn1ncc2c1-c1ccccc1OC2)Nc1ccc(Cl)cn1 n

Which result was noted for this compound in the test: C=CCn1c(Cc2cccs2)nnc1SCC(=O)Nc1ccc(OC)c(OC)c1 n

Please let me know the test result on file for CCOC(=O)c1cccc(NC(=O)CSc2nc3cccnc3n2C)c1 . n

Could you please tell me the result logged for O=S1(=O)Nc2c(ccc3cccnc23)-c2ccccc21 in this assay? y

Outcome logged for CCCC1(C(=O)OCC)NC(c2ccc(N(C)C)cc2)C2C(=O)N(c3ccccc3)C(=O)C21 (stereo not given) in this assay: n

Hi team, can someone confirm the assay call for Cc1onc(-c2ccccc2)c1C(=O)NCCN1CCOCC1 ? n

Assay outcome for O=C(CC(Cc1ccccc1)C(=O)O)NCCc1ccc2c(c1)OCO2 (stereo not given) : what was it? n

Recorded test call requested for COc1cc2c(cc1OC)-c1cc(OCc3cccnc3)nc(=O)n1CC2 n

Entry Cc1nc(-c2ccccc2)sc1C(N)=O : call = ? n

Please state the recorded outcome for this compound: COc1cccc(NC(=O)N2CCC(N3CCCCC3)CC2)c1 n

Could you please tell me the result logged for CCCCn1c(CN(C)Cc2ccccc2)nc2c1c(=O)n(C)c(=O)n2C in this assay? n

// outcome(item) with item = O=C(NCc1ccco1)c1cc2sccc2n1Cc1ccccc1 n

Tell me the recorded outcome of this test for CCOC(=O)CSc1nc2cc(C(=O)N3CCC(C(N)=O)CC3)ccc2c(=O)n1-c1ccccc1 . n

Record request — test call for Cc1ccc(C(=O)Nc2c(C(=O)N3CCOCC3)cnn2-c2ccccc2)cc1 n

In this assay, the call recorded for Cc1cc(-c2ccccc2)nc(SCc2ccc(C(=O)O)o2)n1 was what? n

I'd appreciate the recorded outcome for CSc1nc(N2CCOCC2)c2ccccc2n1 from this test. n

// return assay outcome for COCCCN1C(=O)C(=O)/C(=C(/O)c2ccc(OC)cc2)C1c1ccc(O)c(OC)c1 (stereo not given) n

Hi, sorry to bother you, what did the test record for COc1ccc(CC(=O)OCn2nnc3ccccc3c2=O)cc1 ? n

For CC1CCCC(N2CCN(C(=O)c3ccc(F)cc3)CC2)C1 (stereo not given) , which call appears in the assay record? n

Hi, do you know how Brc1ccc2ncnc(Nc3ccc(N4CCOCC4)cc3)c2c1 came out in this test? n

I'd appreciate the recorded outcome for CCCNC(=O)c1cc(S(=O)(=O)N2CCc3ccccc32)ccc1F from this test. n

Field: outcome | Entry: COc1ccc(-n2nc(C(=O)Nc3ccc4c(c3)OCO4)c3c4ccccc4n(C)c3c2=O)cc1 n

Would you mind telling me which call this test gave COc1ccc(-c2nc(CCNC(=O)c3ccco3)cs2)cc1OC ? n

Called result for CC(=O)Nc1ccc(S(=O)(=O)N2CCN(c3cc(C)nc4ccccc34)CC2)cc1 n
